protocolDetails: Oral bioavailability in Sprague-Dawley rat at 1 mg/kg administered using 0.1%tween-1%CMC as vehicle
Type: ADME, organism-based
conditionContext: in vivo
# reported bioavailability; entries follow
experimentalEndpoint: bioavailability (%)

> print(dat)
                                   molecule  observed
1  Cc1c(Cl)ccc(OC2CCN(C3CCN(C(=O)NS(=O)(=O)c4ccc(N(C)C)cc4)CC3)CC2)c1Cl        82
2  Cc1c(Cl)ccc(OC2CCN(C3CCN(S(=O)(=O)NC(=O)c4ccccc4)CC3)CC2)c1Cl        18
3  O=C(NS(=O)(=O)N1CCC(N2CCC(Oc3ccc(Cl)c(Cl)c3)CC2)CC1)c1ccccc1       100
4  Cc1ccccc1S(=O)(=O)NC(=O)N1CCC(N2CCC(Oc3ccc(Cl)c(Cl)c3)CC2)CC1         8
